Target: furin, P09958;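 further: purified furin at 1:10 enzyme:substrate in 50 mM HEPES pH 7.5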
Sequence (P09958 whole entry): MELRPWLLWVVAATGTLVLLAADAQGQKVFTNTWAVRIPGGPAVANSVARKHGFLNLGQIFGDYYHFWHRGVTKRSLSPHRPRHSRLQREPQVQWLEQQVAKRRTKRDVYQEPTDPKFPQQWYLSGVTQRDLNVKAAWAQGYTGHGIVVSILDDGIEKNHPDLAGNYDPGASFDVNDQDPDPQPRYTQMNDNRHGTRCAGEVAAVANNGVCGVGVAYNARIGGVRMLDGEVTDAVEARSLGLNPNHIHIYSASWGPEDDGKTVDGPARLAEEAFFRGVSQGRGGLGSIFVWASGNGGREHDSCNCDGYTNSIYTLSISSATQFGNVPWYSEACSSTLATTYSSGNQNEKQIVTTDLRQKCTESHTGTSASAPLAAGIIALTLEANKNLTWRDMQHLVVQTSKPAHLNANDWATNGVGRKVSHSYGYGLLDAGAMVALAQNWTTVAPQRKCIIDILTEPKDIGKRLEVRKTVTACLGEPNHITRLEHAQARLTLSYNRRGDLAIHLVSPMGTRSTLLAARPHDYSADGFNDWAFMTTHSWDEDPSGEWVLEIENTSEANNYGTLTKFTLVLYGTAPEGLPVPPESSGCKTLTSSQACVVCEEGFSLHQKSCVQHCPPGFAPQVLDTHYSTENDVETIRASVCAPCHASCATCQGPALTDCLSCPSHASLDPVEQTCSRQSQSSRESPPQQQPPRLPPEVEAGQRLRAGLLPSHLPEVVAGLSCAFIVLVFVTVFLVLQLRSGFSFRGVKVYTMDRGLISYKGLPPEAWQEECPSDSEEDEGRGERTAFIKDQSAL
Assay: furin cleavage Z-score vs untreated control; higher = more cleavage, active = 3.5 or more, inactive = 1 or less, 8 variable residues between constant flanks
Conditions: 30 min
The list shows a part of the results. How many sequences the whole screen found active is unknown.
Use 0.9 as the dividing line for furin cleavage Z-score, with the line itself on the Met side and lower values as Not met.

Some entries whose results are on file:
CALLFLLLADAGNASASA [HC521] = Not met
CALLSCLTVPAGNASASA [HC251] = Not met
CATKSRKKREAGNASASA [FS-1493] = Met

Please tell me: is the sequence CALLFRSNRDAGNASASA [FS-822] at or over 0.9 in terms of furin cleavage Z-score?
Met

Please tell me: is the sequence CAGSSGGPLLAGNASASA [HC742] at or over 0.9 in terms of furin cleavage Z-score?
Not met

Please tell me: is the sequence CAIKARAACRAGNASASA [HC1519] at or over 0.9 in terms of furin cleavage Z-score?
Not met

Please tell me: is the sequence CALLSRVRREAGNASASA [FS-1540] at or over 0.9 in terms of furin cleavage Z-score?
Met

The reported numbers originate from the supplement of paper PMC3545927.
